# protocol-summary: Concentration of (S)-methoprene on dog hair following oral administration (HPLC)
# Format: in vivo, dogs
# condition-parameters: random-bred, dog, hair, po, 50 mg/kg, Dog #529; oral 50 mg/kg one time on Day 0; day 28
result-type: concentration at 28 day (ng/g)
Reply with just the number (in ng/g).

input: Consider the compound COC(C)(C)CCC[C@H](C)C/C=C/C(C)=C/C(=O)OC(C)C [(S)-Methoprene] and give its measured concentration at 28 day.
output: 106

###

# protocol-summary: Concentration of (S)-methoprene in dog blood following oral administration (HPLC)
# Type: in vivo, dogs
# condition-parameters: random-bred, whole blood, 50 mg/kg, Dog #528, oral 50 mg/kg one time on Day 0, day 3
result-type: concentration at 3 day (ng/g)
Give a bare numeral; the unit ng/g is implied.

input: Query (molecule): COC(C)(C)CCC[C@H](C)C/C=C/C(C)=C/C(=O)OC(C)C [(S)-Methoprene] ; field requested: concentration at 3 day
output: 63.6

###

# protocol-summary: Methoprene blood concentrations in dogs following a single oral dose (gas chromatography)
# Format: in vivo
# condition-parameters: both sexes, mixed breed, dog, in vivo; mean of six dogs; single oral dose 50 mg/kg; 0 hours (baseline, seven days prior to dosing)
result-type: concentration at 0 h (ng/mL)
Please reply with the bare figure in ng/mL and do not write the unit itself.

input: Which concentration at 0 h value belongs to COC(C)(C)CCC[C@H](C)C/C=C/C(C)=C/C(=O)OC(C)C [(S)-Methoprene] ?
output: 0

###

# protocol-summary: Concentration of (S)-methoprene in dog blood following oral administration (HPLC)
# Type: in vivo, dogs
# condition-parameters: random-bred, whole blood, 50 mg/kg, Dog #529, oral 50 mg/kg one time on Day 0, day 3
result-type: concentration at 3 day (ng/g)
Response body: numeric value in ng/g, unit text excluded.

input: Give the measured concentration at 3 day of COC(C)(C)CCC[C@H](C)C/C=C/C(C)=C/C(=O)OC(C)C [(S)-Methoprene] .
output: 52.1

###

# protocol-summary: Concentration of (S)-methoprene on dog hair following oral administration (HPLC)
# Assay type: in vivo, dogs
# condition-parameters: dog, hair, po, 50 mg/kg, Dog #532; oral 50 mg/kg one time on Day 0; day 17
result-type: concentration at 17 day (ng/g)
Numbers only here, please. The scale is ng/g.

input: Entry COC(C)(C)CCC[C@H](C)C/C=C/C(C)=C/C(=O)OC(C)C [(S)-Methoprene] : reported concentration at 17 day = ?
output: 331

###

# protocol-summary: Concentration of (S)-methoprene on dog hair following oral administration (HPLC)
# Format: in vivo, dogs
# condition-parameters: random-bred, dog, hair, po, 50 mg/kg, Dog #60; oral 50 mg/kg one time on Day 0; day 1
# Source text: Twelve random-bred adult dogs of various sex and medium hair coat were selected based on hair coat, health, and individual habits. The twelve dogs were grouped into two groups of six dogs each. Dog weights ranged from 22.5 kg to 35.0 kg, and the various weights and each sex were represented in each group. The dogs received a measured amount of Science Diet maintenance dog food daily and water was available. The two groups of dogs were housed separately. […]
result-type: concentration at 1 day (ng/g)
Write the answer as a number in ng/g, unit excluded.

input: Could you share which concentration at 1 day value was measured for COC(C)(C)CCC[C@H](C)C/C=C/C(C)=C/C(=O)OC(C)C [(S)-Methoprene] ?
output: 6000

Values were extracted from patent EP0923292B1.
